meta.source: the RNAGym collection of RNA variant scans (doi:10.1073/pnas.2313332121)

B1: TPR 5TU (parent)
chain: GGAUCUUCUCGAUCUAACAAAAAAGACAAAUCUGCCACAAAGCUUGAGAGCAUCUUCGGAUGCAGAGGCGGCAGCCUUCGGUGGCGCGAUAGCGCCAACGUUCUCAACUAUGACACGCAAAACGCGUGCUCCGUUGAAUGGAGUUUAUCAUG

- Variants of: B1
- protocol.description: polymerase ribozyme fitness, log enrichment relative to wild type (log ratio); higher = more active; in vitro selection for triplet polymerase activity
Fewer inactive variants are shown than the library holds.
Label t when polymerase ribozyme fitness (log ratio) is at or above -3; otherwise label f.

A12G U13A U31A C57A G65A C85G    f

Task: Test whether the variant A28U A49C C103G records polymerase ribozyme fitness (log ratio) of -3 or higher.
Output: f

Task: Hi, just wondering whether G11A C14U U33G U44A C69A C79A C85U A97U shows polymerase ribozyme fitness (log ratio) of -3 or higher.
Output: f

Task: For this variant, is measured polymerase ribozyme fitness (log ratio) -3 or higher? U56C C96U
Output: t

Task: Textbook exercise: given the entry A28C C93U , state whether its polymerase ribozyme fitness (log ratio) is greater than or equal to -3.
Output: f

Task: Record A64U A110G ; criterion: polymerase ribozyme fitness (log ratio) no lower than -3. Met?
Output: f

Task: Check if polymerase ribozyme fitness (log ratio) >= -3 (inclusive). Item: C36U A40G C43G U55A A91C G126A G141U
Output: f

Task: Hi, just wondering whether C72A C85A shows polymerase ribozyme fitness (log ratio) of -3 or higher.
Output: f

Task: Identify whether the reported polymerase ribozyme fitness (log ratio) of the following variant is -3 or greater: U13G A19G G25C C79A C131G U145G
Output: f

Task: Form field: polymerase ribozyme fitness (log ratio) at least -3? Entry: C27U A138G
Output: f

Task: Check if polymerase ribozyme fitness (log ratio) >= -3 (inclusive). Item: U45G C76A C129G U134G
Output: f

Task: Hi, just wondering whether A24U A73U C87A A89U shows polymerase ribozyme fitness (log ratio) of -3 or higher.
Output: f

Task: Check this variant for polymerase ribozyme fitness (log ratio) at or above -3: U15C C51A G86U
Output: t

Task: Could you verify whether the entry U53A G92U C103A shows polymerase ribozyme fitness (log ratio) of no less than -3?
Output: t
